src = patent US20210179598A1

Target: ALK (Homo sapiens)
Sequence (Q9UM73 19-1620, species assumed): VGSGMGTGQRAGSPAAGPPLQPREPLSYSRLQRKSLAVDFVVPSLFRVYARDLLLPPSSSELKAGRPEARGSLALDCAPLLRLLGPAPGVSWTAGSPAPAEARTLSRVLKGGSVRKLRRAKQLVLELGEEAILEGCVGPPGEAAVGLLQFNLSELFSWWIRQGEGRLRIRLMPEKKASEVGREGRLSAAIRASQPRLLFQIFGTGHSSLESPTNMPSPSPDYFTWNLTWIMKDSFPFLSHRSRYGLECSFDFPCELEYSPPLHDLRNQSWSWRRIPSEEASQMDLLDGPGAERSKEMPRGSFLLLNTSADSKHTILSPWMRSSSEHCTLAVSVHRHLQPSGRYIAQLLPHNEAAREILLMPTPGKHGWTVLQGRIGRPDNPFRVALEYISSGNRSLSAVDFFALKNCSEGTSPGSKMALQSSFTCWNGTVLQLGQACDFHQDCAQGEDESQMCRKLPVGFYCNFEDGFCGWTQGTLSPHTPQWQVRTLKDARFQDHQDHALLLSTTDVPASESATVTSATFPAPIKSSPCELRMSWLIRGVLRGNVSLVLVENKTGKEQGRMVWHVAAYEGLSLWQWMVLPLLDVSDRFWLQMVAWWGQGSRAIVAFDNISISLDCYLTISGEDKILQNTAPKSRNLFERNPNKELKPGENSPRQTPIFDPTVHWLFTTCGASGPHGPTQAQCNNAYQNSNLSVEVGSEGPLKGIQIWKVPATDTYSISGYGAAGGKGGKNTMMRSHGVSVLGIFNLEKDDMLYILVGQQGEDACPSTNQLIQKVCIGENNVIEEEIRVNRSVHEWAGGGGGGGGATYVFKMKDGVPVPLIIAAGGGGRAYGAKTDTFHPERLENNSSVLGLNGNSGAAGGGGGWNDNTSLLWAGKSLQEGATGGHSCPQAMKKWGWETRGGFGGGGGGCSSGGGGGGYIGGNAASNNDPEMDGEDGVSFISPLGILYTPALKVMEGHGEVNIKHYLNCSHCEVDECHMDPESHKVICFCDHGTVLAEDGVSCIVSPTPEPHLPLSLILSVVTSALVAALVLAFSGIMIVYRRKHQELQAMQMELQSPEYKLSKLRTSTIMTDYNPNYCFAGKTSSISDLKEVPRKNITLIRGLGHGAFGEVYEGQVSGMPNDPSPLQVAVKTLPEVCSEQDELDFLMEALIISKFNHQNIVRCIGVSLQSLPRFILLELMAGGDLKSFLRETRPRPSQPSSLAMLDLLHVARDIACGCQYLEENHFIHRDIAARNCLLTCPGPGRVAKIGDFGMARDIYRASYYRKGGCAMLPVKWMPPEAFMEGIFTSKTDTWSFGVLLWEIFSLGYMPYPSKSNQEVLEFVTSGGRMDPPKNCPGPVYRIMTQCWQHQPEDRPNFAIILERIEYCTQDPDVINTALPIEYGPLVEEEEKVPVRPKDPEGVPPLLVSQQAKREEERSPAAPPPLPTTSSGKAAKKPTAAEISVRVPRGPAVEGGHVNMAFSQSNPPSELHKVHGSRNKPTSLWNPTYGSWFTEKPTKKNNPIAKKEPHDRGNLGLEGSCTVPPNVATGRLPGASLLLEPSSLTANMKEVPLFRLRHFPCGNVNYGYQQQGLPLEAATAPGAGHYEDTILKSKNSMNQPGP
Assay: ALK kinase IC50 test (HTRF)
Assay type: biochemical
Conditions: Table 2
test-readout: IC50 (µM)
Answer format: numeric, µM implied, no suffix.

Q: Lab request: please report IC50 under test system ALK (Homo sapiens) for CC(Oc1cc(-c2cn(C)c3ccccc23)cnc1N)c1cc(F)ccc1Cl (stereo not shown)
Ans: 7.89

Q: Lab request: please report IC50 under test system ALK (Homo sapiens) for CC(Oc1cc(-c2cnn(C3CCOC3)c2)cnc1N)c1cc(F)ccc1Cl (stereo not shown)
Ans: 1.24

Q: Lab request: please report IC50 under test system ALK (Homo sapiens) for CC(Oc1cc(-c2cccc(N3CCOCC3)c2)cnc1N)c1cc(F)ccc1Cl (stereo not shown)
Ans: 3.89

Q: Lab request: please report IC50 under test system ALK (Homo sapiens) for CC(Oc1cc(-c2c[nH]c3ccccc23)cnc1N)c1cc(F)ccc1Cl (stereo not shown)
Ans: 5.5

Q: Lab request: please report IC50 under test system ALK (Homo sapiens) for COc1ncc(F)cc1C(C)Oc1cc(-c2cnn(C3CCNCC3)c2)cnc1N (stereo not shown)
Ans: 0.132

Q: Lab request: please report IC50 under test system ALK (Homo sapiens) for CC(Oc1cc(-n2cccn2)cnc1N)c1cc(F)ccc1Cl (stereo not shown)
Ans: 7.78

Q: Lab request: please report IC50 under test system ALK (Homo sapiens) for CCOC(C)n1cc(-c2cnc(N)c(OC(C)c3cc(F)ccc3Cl)c2)cn1 (stereo not shown)
Ans: 5.28

Q: Lab request: please report IC50 under test system ALK (Homo sapiens) for CC(Oc1cc(-c2cnn(C3COC3)c2)cnc1N)c1cc(F)ccc1Cl (stereo not shown)
Ans: 0.335

Q: Lab request: please report IC50 under test system ALK (Homo sapiens) for COCCCn1cc(-c2cnc(N)c(OC(C)c3cc(F)ccc3Cl)c2)cn1 (stereo not shown)
Ans: 2.33

Q: Lab request: please report IC50 under test system ALK (Homo sapiens) for C[C@@H](Oc1cc(-c2cncc(N3CCNCC3)c2)cnc1N)c1c(Cl)ccc(F)c1Cl
Ans: 2.44

Q: Lab request: please report IC50 under test system ALK (Homo sapiens) for CC(Oc1cc(-c2cncnc2)cnc1N)c1cc(F)ccc1Cl (stereo not shown)
Ans: 3.67

Q: Lab request: please report IC50 under test system ALK (Homo sapiens) for CC(Oc1cc(-c2cnn3ccccc23)cnc1N)c1cc(F)ccc1Cl (stereo not shown)
Ans: 1.23

Q: Lab request: please report IC50 under test system ALK (Homo sapiens) for CCC(Oc1cc(-c2cnn(C3CCNCC3)c2)cnc1N)c1c(Cl)ccc(F)c1Cl (stereo not shown)
Ans: 3.56

Q: Lab request: please report IC50 under test system ALK (Homo sapiens) for C[C@@H](Nc1cc(-c2cnn(C3CCNCC3)c2)cnc1N)c1c(Cl)ccc(F)c1Cl
Ans: 3.45

Q: Lab request: please report IC50 under test system ALK (Homo sapiens) for CC(Oc1cc(-c2ccc(C3CCNCC3)cc2)cnc1N)c1cc(F)ccc1Cl (stereo not shown)
Ans: 0.545

Q: Lab request: please report IC50 under test system ALK (Homo sapiens) for COCCn1cc(-c2cnc(N)c(OC(C)c3cc(F)ccc3Cl)c2)cn1 (stereo not shown)
Ans: 2.36

Q: Lab request: please report IC50 under test system ALK (Homo sapiens) for CC(Oc1cc(-c2cnn(C)c2)cnc1N)c1cc(F)ccc1Cl (stereo not shown)
Ans: 0.201

Q: Lab request: please report IC50 under test system ALK (Homo sapiens) for CC(Oc1cc(-c2cnn3cccnc23)cnc1N)c1cc(F)ccc1Cl (stereo not shown)
Ans: 2.34

Q: Lab request: please report IC50 under test system ALK (Homo sapiens) for CC(Oc1cc(-c2cnn(C3CCNCC3)c2)cnc1N)c1cc(F)ccc1Cl (stereo not shown)
Ans: 0.089

Q: Lab request: please report IC50 under test system ALK (Homo sapiens) for CC(Oc1cc(-c2cccc(N3CCNCC3)c2)cnc1N)c1cc(F)ccc1Cl (stereo not shown)
Ans: 0.334

Q: Lab request: please report IC50 under test system ALK (Homo sapiens) for C[C@@H](Oc1cc(-c2cnn(C3CCNCC3)c2)cnc1N)c1ccccc1
Ans: 5.43

Q: Lab request: please report IC50 under test system ALK (Homo sapiens) for CC(Oc1cc(-c2cn[nH]c2)cnc1N)c1cc(F)ccc1Cl (stereo not shown)
Ans: 0.334

Q: Lab request: please report IC50 under test system ALK (Homo sapiens) for COc1ccc(F)cc1C(C)Oc1cc(-c2cnn(C3CCNCC3)c2)cnc1N (stereo not shown)
Ans: 1.33
